Tested on: α-smooth muscle actin (aSMA) positive LL29 cells
Experiment: Inhibition of the fibrotic process: αSMA staining in TGF-β1 treated LL29 fibroblasts from IPF patients
Details: Homo sapiens, Fibroblast, read-out: percentage in parentheses after EC50 >10
Label scheme, based on inhibition at 10 µM: low group (below 20%), middle group (20% to below 30%), high group (30% or more)

> print(dat)
                   compound.structure.string  answer.label
 1  Cn1cncc1-c1ccc2cnc(NC(=O)c3ccc(F)cc3)cc2n1  middle group
 2  CN1CCC(Oc2cccc(C(=O)Nc3cc4nc(-c5cnco5)ccc4cn3)c2)CC1     low group
 3  Cn1cncc1-c1cc2cc(NC(=O)C3CCC(F)(F)CC3)ncc2cn1    high group
 4  CN1CCc2ccc(C(=O)Nc3cc4cc(-c5cnn(C)c5)cnc4cn3)cc2C1    high group
 5  Cn1cc(-c2ccc3cnc(NC(=O)CCc4ccccc4)nc3c2)cn1     low group
 6  CCN(CC)CC(=O)Nc1ncc2ccc(-c3cnn(C)c3CN3CCCCC3)cc2n1     low group
 7  Cn1cc(-c2ccc3cnc(NC(=O)C4CCN(CC5(C(F)(F)F)CC5)CC4)nc3c2)nn1    high group
 8  CN1CCN(c2cc(C(=O)Nc3cc4cc(-c5cnn(C)c5N)cnc4cn3)ccn2)CC1    high group
 9  CN1CCN(c2ccc(C(=O)Nc3ncc4ccc(-c5cnn(C)c5)cc4n3)cn2)CC1     low group
10  Cc1ncc(-c2ccc3cnc(NC(=O)[C@H]4C[C@H](N5CCOCC5)C4)nc3c2)o1     low group
11  CN(CC(=O)Nc1cc2cc(-c3cnn(C)c3)cnc2cn1)C1CCC1    high group
12  CO[C@H]1CC[C@@H](C(=O)Nc2ncc3ccc(-c4nnc(C)s4)cc3n2)CC1    high group
13  CN1CCc2ccc(C(=O)Nc3ncc4ccc(-c5cnn(C)c5)cc4n3)cc2C1     low group
14  CC(F)(F)CN1CCC(C(=O)Nc2cc3nc(-c4cnco4)ccc3cn2)CC1    high group
15  Cn1cc(-c2ccc3cnc(NC(=O)c4ccc5nccnc5c4)nc3c2)cn1  middle group
16  Nc1cncc(-c2ccc3cnc(NC(=O)c4ccc(OC5CCNCC5)cc4)nc3c2)c1     low group
17  Cn1cc(-c2ccc3cnc(NC(=O)[C@H]4CCCN4)cc3n2)cn1     low group
18  Cn1ncc(-c2ccc3cnc(NC(=O)C4CC5(C4)CN(CCF)C5)nc3c2)c1CN1CCCCC1  middle group
19  Cn1cc(-c2ccc3cnc(NC(=O)CN4CCOCC4)nc3c2)cn1    high group
20  Cn1cc(-c2ccc3cnc(NC(=O)C4CCN(Cc5ncccn5)CC4)nc3c2)cn1    high group
21  Cn1cc(-c2ccc3cnc(NC(=O)C4CCN(Cc5ncco5)CC4)nc3c2)cn1     low group
22  O=C(Nc1cc2nc(-c3cncc(NC4CCNCC4)n3)ccc2cn1)C1CCOCC1  middle group
23  O=C(Nc1cc2nc(-c3cnco3)ccc2cn1)[C@H]1CC[C@H](CO)CC1    high group
24  Nc1cncc(-c2cnc3cnc(NC(=O)c4ccc(OC5CCNCC5)cc4)cc3c2)c1    high group
25    Cn1cc(-c2ccc3nnc(NC(=O)C4CC4)cc3c2)cn1    high group
26  CN1CC(COc2cncc(-c3ccc4cnc(NC(=O)c5ccc(F)cc5)cc4n3)n2)C1  middle group
27  Cc1ncc(-c2ccc3cnc(NC(=O)[C@H]4C[C@H](N5CCOCC5)C4)cc3n2)o1  middle group
28  CN1CCC(C(=O)Nc2cc3nc(-c4cnsc4)ccc3cn2)CC1     low group
29  Cn1cc(-c2ccc3cnc(NC(=O)[C@H]4CC[C@H](NCCF)CC4)cc3n2)cn1  middle group
30  Cn1cc(-c2cc3cc(NC(=O)C4CCN(CCC(F)(F)F)CC4)ncc3cn2)cn1     low group
31  CC(C)CN1CCC(C(=O)Nc2cc3cc(-c4cnn(C)c4)cnc3cn2)CC1     low group
32  CNC(=O)c1ccc(C(=O)Nc2cc3cc(-c4cn(C)nn4)cnc3cn2)cn1     low group
